Target: MSUT2 (Homo sapiens (Human), UniProt Q6PJT7)
Sequence (Q6PJT7 whole entry, species assumed): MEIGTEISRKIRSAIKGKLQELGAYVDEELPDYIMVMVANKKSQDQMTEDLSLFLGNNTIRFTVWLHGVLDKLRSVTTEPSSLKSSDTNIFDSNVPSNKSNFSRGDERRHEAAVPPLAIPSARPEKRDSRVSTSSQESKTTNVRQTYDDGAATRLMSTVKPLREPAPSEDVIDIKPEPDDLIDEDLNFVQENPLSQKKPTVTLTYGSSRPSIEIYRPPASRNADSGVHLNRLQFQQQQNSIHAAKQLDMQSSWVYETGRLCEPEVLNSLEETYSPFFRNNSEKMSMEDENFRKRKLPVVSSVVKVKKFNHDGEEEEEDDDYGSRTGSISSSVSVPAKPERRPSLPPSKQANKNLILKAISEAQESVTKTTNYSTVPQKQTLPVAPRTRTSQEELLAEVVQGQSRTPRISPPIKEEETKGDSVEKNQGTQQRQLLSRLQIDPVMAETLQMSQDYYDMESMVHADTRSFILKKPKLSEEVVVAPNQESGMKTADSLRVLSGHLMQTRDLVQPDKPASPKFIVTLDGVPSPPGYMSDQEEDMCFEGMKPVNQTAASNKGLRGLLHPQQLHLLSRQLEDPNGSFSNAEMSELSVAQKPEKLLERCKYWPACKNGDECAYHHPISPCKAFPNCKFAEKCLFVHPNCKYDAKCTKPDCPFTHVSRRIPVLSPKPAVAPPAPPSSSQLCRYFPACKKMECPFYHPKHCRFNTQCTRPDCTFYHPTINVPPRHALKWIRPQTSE
Assay: primary tau-inclusion neuronal assay (MSUT2 inhibitor activity)
Format: cell-based
Details: preliminary SAR summary
ENDPOINT_LABEL: biological activity in the in vitro assay (SAR summary in words)

Study these solved cases before continuing.
| COMPOUND | STUDY_SYSTEM | VALUE_MEASURED |
| --- | --- | --- |
| O=C(NCCS(=O)(=O)O)Nc1nc2c(s1)CSc1ccccc1-2 | MSUT2 (Homo sapiens (Human), UniProt Q6PJT7) | favorable activity |
| Nc1nc2c(s1)CSCC2 | MSUT2 (Homo sapiens (Human), UniProt Q6PJT7) | eliminates activity |
| CCS(=O)(=O)c1ccc(C(=O)Nc2nc3c(s2)CSCC3)cc1 | MSUT2 (Homo sapiens (Human), UniProt Q6PJT7) | eliminates activity |
| C#CCCNC(=O)Nc1nc2c(s1)CSc1ccccc1-2 | MSUT2 (Homo sapiens (Human), UniProt Q6PJT7) | favorable activity |
| c1ccc(CNc2nc3c(s2)CSc2ccccc2-3)cc1 | MSUT2 (Homo sapiens (Human), UniProt Q6PJT7) | widely tolerated |
| CCS(=O)(=O)c1ccc(C(=O)Nc2nc(-c3ccccc3)cs2)cc1 | MSUT2 (Homo sapiens (Human), UniProt Q6PJT7) | eliminates activity |
| Nc1nc(-c2ccccc2)cs1 | MSUT2 (Homo sapiens (Human), UniProt Q6PJT7) | eliminates activity |
| C#CCOC(=O)Nc1nc2c(s1)CSc1ccccc1-2 | MSUT2 (Homo sapiens (Human), UniProt Q6PJT7) | favorable activity |

Query molecule follows.
// query Identify biological activity in the in vitro assay (SAR summary in words) associated with the molecule `Cc1ccc(CNc2nc3c(s2)CSc2ccccc2-3)s1`
// result widely tolerated
